Recorded values, source ChEMBL document CHEMBL3988442.

molecular target: Proteasome subunit beta (Trypanosoma cruzi) (UniProt O96673); assay: Trypanosoma cruzi proteasome chymotrypsin-like activity (TcProtChymo) assay.; type: functional; set-up: scale not given: in the data most compounds retested in dose-response had high values; conditions: 9.37 µM
Sequence (O96673 as listed by the source): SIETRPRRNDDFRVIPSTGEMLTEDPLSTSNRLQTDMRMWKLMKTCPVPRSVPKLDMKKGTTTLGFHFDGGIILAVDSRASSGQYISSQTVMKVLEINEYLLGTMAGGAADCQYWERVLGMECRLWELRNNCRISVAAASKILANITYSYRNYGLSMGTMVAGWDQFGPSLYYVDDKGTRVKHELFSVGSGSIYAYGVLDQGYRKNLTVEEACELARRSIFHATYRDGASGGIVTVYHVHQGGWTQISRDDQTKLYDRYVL
Each entry below carries its recorded Percent Effect.
A number alone suffices; assume %.

Example entries begin here.
COc1ccc(-c2noc(CNC(C)Cn3cccn3)n2)c(OC)c1 (stereo unspecified) :: 9.9
Cc1ccoc1C(=O)N1CCOCC2(CCN(c3ncccn3)C2)C1 (stereo unspecified) :: 9.01
CCc1nc(C)c(C(=O)NCCN2CCN(C(C)=O)CC2)s1 :: -0.702
CC(C)n1ccnc1C1CCN(C(=O)C2COc3ccccc3O2)CC1 (stereo unspecified) :: 13.2

Q: Recorded Percent Effect for Cc1[nH]c(=O)c(C#N)cc1C(=O)N1C[C@@H](CN2CCCC2)C[C@H](CO)C1 , please?
Ans: -5.82

Q: Continue with COc1ccc(CNCc2ccnc(N3CCOCC3)c2)cc1OC
Ans: 10.7
